Assay: Half life in female Balb/c mouse at 8 mg/kg, ip measured up to 24 hrs by LC-MS/MS analysis
Type: ADME, organism-based
Conditions: in vivo
Assay endpoint: half-life (h)
Give a bare numeral; the unit h is implied.

## Task Please report the recorded half-life for "CN(N=O)c1ccc(OCc2ccc([N+](=O)[O-])c(F)c2)cc1" .
## Result 2.39

---

Assay: Tmax in female Balb/c mouse at 8 mg/kg, ip measured up to 24 hrs by LC-MS/MS analysis
Type: ADME, organism-based
Conditions: in vivo
Assay endpoint: Tmax (h)
Give a bare numeral; the unit h is implied.

## Task Please report the recorded Tmax for "CN(N=O)c1ccc(OCc2ccc([N+](=O)[O-])c(F)c2)cc1" .
## Result 2.08

Data credit: ChEMBL document CHEMBL6087446
